Target: UniProt:P0DTD1
Assay: biochemical
Details: read-out: Activity (% enzyme activity by fluorescence relative to initial enzyme activity), compound at 17 μM, duplicates, 20 min pre-incubation
property_label: remaining activity at 17 µM

compound="CC(C)=CCc1cc(-c2oc3cc(O)cc(O)c3c(=O)c2O)ccc1O [Isolicoflavonol]" tested_target=UniProt:P0DTD1 property_label="remaining activity at 17 µM" result="10 to 80%"
compound="C=C(C)[C@H](CC=C(C)C)Cc1c(O)cc(O)c2c1O[C@H](c1ccc(O)cc1O)CC2=O [Kushenol F]" tested_target=UniProt:P0DTD1 property_label="remaining activity at 17 µM" result="> 80%"
compound="CC(C)=CCc1cc([C@@H]2CC(=O)c3c(O)cc(O)c(CC=C(C)C)c3O2)ccc1O [Euchrestaflavanone A]" tested_target=UniProt:P0DTD1 property_label="remaining activity at 17 µM" result="> 80%"
compound="CC(C)=CCc1c(O)c(CC=C(C)C)c2occc(=O)c2c1O [Eriosemation]" tested_target=UniProt:P0DTD1 property_label="remaining activity at 17 µM" result="> 80%"
compound="CC(C)=CCc1c(O)cc2c(c1O)C(=O)[C@@]1(O)c3ccc(O)cc3O[C@H]1O2 [Lupinol C]" tested_target=UniProt:P0DTD1 property_label="remaining activity at 17 µM" result="> 80%"
compound="COc1cc2c(c(OC)c1CC=C(C)C)C[C@H](c1ccc(O)cc1O)CO2 [Glyasperin D]" tested_target=UniProt:P0DTD1 property_label="remaining activity at 17 µM" result="10 to 80%"
compound="CC(C)=CCc1c(O)c(CC=C(C)C)c2occ(-c3ccc(O)c(O)c3)c(=O)c2c1O [6,8-Diprenylorobol]" tested_target=UniProt:P0DTD1 property_label="remaining activity at 17 µM" result="> 80%"
compound="COc1ccc(-c2oc3c(CC=C(C)C)c(O)cc(O)c3c(=O)c2O[C@@H]2O[C@@H](C)[C@H](O)[C@@H](O)[C@H]2O)cc1 [Baohuoside I]" tested_target=UniProt:P0DTD1 property_label="remaining activity at 17 µM" result="10 to 80%"
